tested on: MS2 coat protein; test: apparent KD of MS2 coat protein; designed switch direction (-1 OFF switch, 1 ON switch): -1; higher = weaker reporter binding; details: input ligand: FMN 200 uM
Listing of recorded apparent KD of MS2 coat protein by entry.

[
  {
    "Chain": "UAUUAAACAAGCAGAUCCCACAUGAGGAUCACCCAUGUGCUCGUCUUAUAAGGUACUGUGACGAUAGUCACGGUACC [Mat - Sensor, turn-off var - Eli Mod - D62] (Eterna round: R97, puzzle: Sensor, turn-off variant 1)",
    "apparent KD of MS2 coat protein [nM]": 49
  },
  {
    "Chain": "AGAGUACUGCGAGGAUAUACAUGAGGAUCACCCAUGUGGUGGUGUGAGGCAAAGCCUCACACCAUGUAGAAGGCGCAGUACUCA [Mat - Exclusion NG 2 - Mod of JL - D20] (Eterna round: R96, puzzle: Exclusion NG 2)",
    "apparent KD of MS2 coat protein [nM]": 159
  },
  {
    "Chain": "AAAAGGAUAGGAUAUGCUCUAGGACACUUGAGGAUCACCCAAGUGUCGGCAAGGUCCUAGGCAGAAGGAUCUGGCA [Onordibi] (Eterna round: R97, puzzle: Exclusion 5)",
    "apparent KD of MS2 coat protein [nM]": 88.3
  },
  {
    "Chain": "CGCUGGUGAGGAUAUGGGUGUGGUUACAUGAGGAUCACCCAUGUGGUGUCGCAUGUGGGUCCAGAAGGCGCGGGUG [-25.2, -23.4 kcal, 17% A] (Eterna round: R97, puzzle: Exclusion 5)",
    "apparent KD of MS2 coat protein [nM]": 856
  }
]
